assay-explanation: Cmax in Sprague-Dawley rat at 43 mg/kg, po
Assay type: ADME, organism-based
Parameters: dose 43 mg/kg, route oral
assay-conditions: in vivo
readout-label: Cmax (µg/mL)
Please state the figure in µg/mL; there is no need to write the unit.

Exam item: Give recorded Cmax. O=c1ncn2nc(Sc3ccc(F)cc3F)ccc2c1-c1c(Cl)cccc1Cl
Marked response: 0.89

* * *

assay-explanation: Volume of distribution at steady state in BALB/c mouse at 2 mg/kg, iv
Assay type: ADME, organism-based
Set-up: dose 2 mg/kg, route intravenous
assay-conditions: in vivo, read-out: Vdss
readout-label: Vd (L/kg)
Please state the figure in L/kg; there is no need to write the unit.

Exam item: Give recorded Vd. O=c1ncn2nc(Sc3ccc(F)cc3F)ccc2c1-c1c(Cl)cccc1Cl
Marked response: 2.2

* * *

assay-explanation: Inhibition of Gsk3 by filter binding assay
readout-label: IC50

Exam item: Give recorded IC50. O=c1ncn2nc(Sc3ccc(F)cc3F)ccc2c1-c1c(Cl)cccc1Cl
Marked response: > 5 µM

* * *

target-or-system: Mitogen-activated protein kinase 14 (Homo sapiens)
Sequence (Q16539 whole entry): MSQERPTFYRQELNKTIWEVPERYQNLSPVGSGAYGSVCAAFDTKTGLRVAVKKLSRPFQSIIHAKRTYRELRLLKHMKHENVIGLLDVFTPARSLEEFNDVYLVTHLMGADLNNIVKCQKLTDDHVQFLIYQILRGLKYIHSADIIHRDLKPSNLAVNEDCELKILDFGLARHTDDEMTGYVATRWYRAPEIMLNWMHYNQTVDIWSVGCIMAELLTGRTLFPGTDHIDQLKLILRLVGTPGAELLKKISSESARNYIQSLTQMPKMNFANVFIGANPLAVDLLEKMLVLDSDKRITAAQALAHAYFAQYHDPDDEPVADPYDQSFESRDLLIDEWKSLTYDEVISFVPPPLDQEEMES
assay-explanation: Inhibition of p38alpha kinase using KRELVEPLTPSGEAPNQALLR as substrate for 20 mins by lactate dehydrogenase-coupled spectrophotometric assay
readout-label: pIC50
# pIC50 = -log10(concentration in molar units)

Exam item: Give recorded pIC50. O=c1ncn2nc(Sc3ccccc3)ccc2c1-c1c(F)cccc1C(F)(F)F
Marked response: 5.77

Exam item: Give recorded pIC50. Cc1ccccc1-c1c(=O)ncn2nc(Sc3ccccc3)ccc12
Marked response: 5.36

* * *

assay-explanation: Oral bioavailability in Sprague-Dawley rat at 43 mg/kg
Type: ADME, organism-based
assay-conditions: in vivo
readout-label: bioavailability

Exam item: Give recorded bioavailability. O=c1ncn2nc(Sc3ccc(F)cc3F)ccc2c1-c1c(Cl)cccc1Cl
Marked response: 56%

* * *

assay-explanation: Half life in Sprague-Dawley rat at 43 mg/kg, po
Assay type: ADME, organism-based
Design: dose 43 mg/kg, route oral
assay-conditions: in vivo
readout-label: half-life (h)
Please state the figure in h; there is no need to write the unit.

Exam item: Give recorded half-life. O=c1ncn2nc(Sc3ccc(F)cc3F)ccc2c1-c1c(Cl)cccc1Cl
Marked response: 4.5

* * *

assay-explanation: Half life in beagle dog at 33 mg/kg, po
Format: ADME, organism-based, Canis lupus familiaris
Parameters: dose 33 mg/kg, route oral
assay-conditions: in vivo
readout-label: half-life (h)
Please state the figure in h; there is no need to write the unit.

Exam item: Give recorded half-life. O=c1ncn2nc(Sc3ccc(F)cc3F)ccc2c1-c1c(Cl)cccc1Cl
Marked response: 4.5

* * *

assay-explanation: AUC in Sprague-Dawley rat at 43 mg/kg, po
Format: ADME, organism-based
Design: dose 43 mg/kg, route oral
assay-conditions: plasma
readout-label: AUC (ng·h/mL)
Please state the figure in ng·h/mL; there is no need to write the unit.

Exam item: Give recorded AUC. O=c1ncn2nc(Sc3ccc(F)cc3F)ccc2c1-c1c(Cl)cccc1Cl
Marked response: 6300

* * *

assay-explanation: AUC in BALB/c mouse at 2 mg/kg, iv
Assay type: ADME, organism-based
Design: dose 2 mg/kg, route intravenous
assay-conditions: plasma
readout-label: AUC (ng·h/mL)
Please state the figure in ng·h/mL; there is no need to write the unit.

Exam item: Give recorded AUC. O=c1ncn2nc(Sc3ccc(F)cc3F)ccc2c1-c1c(Cl)cccc1Cl [NEFLAMAPIMOD]
Marked response: 1540
